- Tested on: SW 962;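 further: growth inhibition of human SW962 cells, read out by a cell viability assay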
- Measurement notes: cells
- Format: functional, cell-based, Homo sapiens
- Condition notes: Homo sapiens, SW 962
- Description: SANGER: Inhibition of human SW962 cell growth in a cell viability assay.
Quantity kind: IC50

Worked set:
CC1(C)CNc2cc(NC(=O)c3cccnc3NCc3ccncc3)ccc21; > 2000 nM
Cn1cnc2c(F)c(Nc3ccc(Br)cc3Cl)c(C(=O)NOCCO)cc21; > 4000 nM

# IC50 (compound: `Cc1cc([N+](=O)[O-])ccc1NS(=O)(=O)c1cc(Cl)ccc1Cl` ) is 4680 nM

Record `CCN(CC)CCCCNc1ncc2cc(-c3cc(OC)cc(OC)c3)c(NC(=O)NC(C)(C)C)nc2n1` , field IC50: 790 nM
